B1: library; numbered along this chain (parent)
chain: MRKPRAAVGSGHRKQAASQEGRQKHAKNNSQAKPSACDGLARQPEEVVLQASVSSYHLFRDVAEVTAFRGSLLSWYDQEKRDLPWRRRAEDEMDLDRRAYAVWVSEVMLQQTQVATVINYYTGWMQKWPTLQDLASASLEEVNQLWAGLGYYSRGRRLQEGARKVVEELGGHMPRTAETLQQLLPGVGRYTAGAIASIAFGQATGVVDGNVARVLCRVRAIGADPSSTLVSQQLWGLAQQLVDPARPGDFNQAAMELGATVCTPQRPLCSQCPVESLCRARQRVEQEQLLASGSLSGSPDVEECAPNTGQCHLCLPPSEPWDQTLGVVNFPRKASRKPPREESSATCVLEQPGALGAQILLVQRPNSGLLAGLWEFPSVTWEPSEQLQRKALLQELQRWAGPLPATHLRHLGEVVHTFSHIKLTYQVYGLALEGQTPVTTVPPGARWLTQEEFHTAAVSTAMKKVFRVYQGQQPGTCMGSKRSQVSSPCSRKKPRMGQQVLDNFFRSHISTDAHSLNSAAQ

# Variants of: B1
# TEST DETAILS: 8OG:A repair function score (normalized; synonymous = 0, nonsense = -1) (normalized log-likelihood score); higher = more repair activity (WT-like);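 note: cells sorted at 72 h after reporter transfection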
# EXPERIMENTAL PARAMETERS: with 8OG:A DNA repair reporter (GFP) in HEK-293 MUTYH KO cells
We use -0.04 as the dividing line for 8OG:A repair function score: on or above the line is yes (1), below is no (0).

G39T = yes (1)
Q386R = yes (1)

Query: Answer whether 8OG:A repair function score of R60S is greater than or equal to -0.04.
Result: yes (1)

Query: Answer whether 8OG:A repair function score of R175V is greater than or equal to -0.04.
Result: no (0)
